assay: Compound tested for plasma levels in monkeys dosed at 10 mg/kg, po; assay type: ADME, organism-based; design: dose 10 mg/kg, route oral; conditions: monkey, in vivo, read-out: Plasma level
Please respond with reported concentration for every item in the list.

{"Molecule": "CCc1nn(C2CCCC2)c2c1CCN(c1ccccc1C)C2=O", "concentration": "280 nM"}

Could you now consider this next molecule?
**Q:** concentration lookup needed for COc1ccc(C2CNC(=O)C2)cc1OC1CCCC1 (configuration not stated) , thanks.
**A:** 910 nM
